# measuredTarget: NLRP3 (Homo sapiens, UniProt Q96P20)
# Construct: Seed THP-1 cells (5.56*10^5 cells/mL) containing 1.0 ug/mL LPS; endogenous in cells
# Sequence (Q96P20 whole entry): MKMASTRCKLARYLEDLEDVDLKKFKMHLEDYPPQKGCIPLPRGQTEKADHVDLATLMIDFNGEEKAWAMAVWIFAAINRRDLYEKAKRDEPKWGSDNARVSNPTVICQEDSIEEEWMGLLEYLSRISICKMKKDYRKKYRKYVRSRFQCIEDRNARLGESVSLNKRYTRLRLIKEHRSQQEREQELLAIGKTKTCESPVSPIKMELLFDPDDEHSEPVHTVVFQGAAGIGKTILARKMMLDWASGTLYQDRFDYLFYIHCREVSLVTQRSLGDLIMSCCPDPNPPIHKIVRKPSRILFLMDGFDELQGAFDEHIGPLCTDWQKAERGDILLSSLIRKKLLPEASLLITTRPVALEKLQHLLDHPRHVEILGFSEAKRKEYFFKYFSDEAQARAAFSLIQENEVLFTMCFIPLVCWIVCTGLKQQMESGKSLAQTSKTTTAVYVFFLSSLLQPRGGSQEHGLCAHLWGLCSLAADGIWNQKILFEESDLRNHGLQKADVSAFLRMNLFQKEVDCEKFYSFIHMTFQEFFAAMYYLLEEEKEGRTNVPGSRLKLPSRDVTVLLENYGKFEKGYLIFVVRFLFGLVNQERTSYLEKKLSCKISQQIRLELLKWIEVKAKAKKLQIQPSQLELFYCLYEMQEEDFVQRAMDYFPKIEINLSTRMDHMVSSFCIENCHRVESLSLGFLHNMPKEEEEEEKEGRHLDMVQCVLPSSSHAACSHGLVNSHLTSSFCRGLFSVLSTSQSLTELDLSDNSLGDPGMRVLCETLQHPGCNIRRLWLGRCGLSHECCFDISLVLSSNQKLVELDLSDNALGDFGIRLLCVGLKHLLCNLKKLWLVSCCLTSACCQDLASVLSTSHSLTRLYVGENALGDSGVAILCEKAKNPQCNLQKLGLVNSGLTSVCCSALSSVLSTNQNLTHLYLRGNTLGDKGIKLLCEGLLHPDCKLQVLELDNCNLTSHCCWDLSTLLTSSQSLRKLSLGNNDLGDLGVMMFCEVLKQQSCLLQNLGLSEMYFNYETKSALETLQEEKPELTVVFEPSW
# assayProcedure: THP-1 cell assay (LPS priming, nigericin), IL1β release by HTRF; called pyroptosis assay, THP IC50
# condition: NLRP3 inhibitory activity; THP-1 cells, 1.0 ug/mL LPS, compound 3 hrs, nigericin 5 uM 1 hr, IL1β in supernatant

[
  {
    "compound": "Cc1cc2c(c(NC(=O)NS(=O)(=O)c3cnn(C4CC4)c3)c1-c1ccn3nccc3c1)CCC2 [Example 14]",
    "IC50": "≤ 30 nM"
  },
  {
    "compound": "CC(C)(O)c1csc(S(=O)(=O)NC(=O)Nc2c(-c3ccn4nccc4c3)ccc3c2CCC3)c1 [Example 60]",
    "IC50": "≤ 30 nM"
  },
  {
    "compound": "CC(C)(O)c1csc(S(=O)(=O)NC(=O)Nc2c(-c3ccnc4c3ccn4C3COC3)ccc3c2CCC3)c1 [Example 59]",
    "IC50": "30 to 300 nM"
  },
  {
    "compound": "CC(C)(O)c1csc(S(=O)(=O)NC(=O)Nc2c(-c3ccn4ccnc4c3)ccc3c2CCC3)c1 [Example 42]",
    "IC50": "≤ 30 nM"
  },
  {
    "compound": "O=C(Nc1c(-c2ccn3nccc3c2)ccc2c1CCC2)NS(=O)(=O)c1cncc(NC2CC2)c1 [Example 31]",
    "IC50": "≤ 30 nM"
  },
  {
    "compound": "O=C(Nc1c2c(cc(Cl)c1-c1ccn3nccc3c1)CCC2)NS(=O)(=O)c1ccn(C2CC2)n1 [Example 89]",
    "IC50": "≤ 30 nM"
  },
  {
    "compound": "CN(c1cncc(S(=O)(=O)NC(=O)Nc2c(-c3ccn4nccc4c3)ccc3c2CCC3)c1)C1CC1 [Example 30]",
    "IC50": "30 to 300 nM"
  },
  {
    "compound": "Cn1ccc2c(-c3ccc4c(c3NC(=O)NS(=O)(=O)c3cc(C(C)(C)O)cs3)CCC4)ccnc21 [Example 41]",
    "IC50": "≤ 30 nM"
  },
  {
    "compound": "Cc1cc2c(c(NC(=O)NS(=O)(=O)c3ccn(CC4CC4)n3)c1-c1ccn3nccc3c1)OCC2 [Example 86]",
    "IC50": "30 to 300 nM"
  },
  {
    "compound": "CC(C)(O)c1csc(S(=O)(=O)NC(=O)Nc2c(-c3ccn4ccnc4c3)ccc3c2OCO3)c1 [Example 66]",
    "IC50": "≤ 30 nM"
  },
  {
    "compound": "Cc1cc2c(c(NC(=O)NS(=O)(=O)c3cnn(CC4CC4)c3)c1-c1ccc3ccnn3c1)CCC2 [Example 21]",
    "IC50": "≤ 30 nM"
  },
  {
    "compound": "CC(C)(O)c1csc(S(=O)(=O)NC(=O)Nc2c(-c3ccn4cncc4c3)ccc3c2CCC3)c1 [Example 54]",
    "IC50": "≤ 30 nM"
  },
  {
    "compound": "Cn1ccc2c(-c3ccc4c(c3NC(=O)NS(=O)(=O)c3cc(C(C)(C)O)cs3)CCC4)cncc21 [Example 47]",
    "IC50": "300 to 1000 nM"
  },
  {
    "compound": "Cc1cc2c(c(NC(=O)NS(=O)(=O)c3ccn(C[C@H](C)O)n3)c1-c1ccn3nccc3c1)CCC2 [Example 80]",
    "IC50": "≤ 30 nM"
  }
]
